# experimental target: human CD40 on cells (human, UniProt P25942 21-277)
# Sequence (P25942 21-277): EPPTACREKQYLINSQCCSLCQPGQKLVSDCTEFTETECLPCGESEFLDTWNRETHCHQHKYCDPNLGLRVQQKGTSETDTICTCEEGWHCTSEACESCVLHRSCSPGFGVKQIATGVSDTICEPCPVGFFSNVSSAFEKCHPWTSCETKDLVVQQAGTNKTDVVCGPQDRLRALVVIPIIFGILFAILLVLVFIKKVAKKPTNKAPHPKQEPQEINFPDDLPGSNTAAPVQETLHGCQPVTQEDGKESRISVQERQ
# procedure summary: cell-based or functional assay
measurement label: Maximum Fold Increase of CD80 on dendritic cells (fold)

{"binder": "Antibody clone H11 (antibody, human IgG1, lambda, V domains shown, also called H11 ANTI-CD40 ANTIBODY) VH: EVQLLESGGGLVQPGGSLRLSCAASGFTFSTYGMHWVRQAPGKGLEWLSYISGGSSYIFYADSVRGRFTISRDNSENALYLQMNSLRAEDTAVYYCARILRGGSGMDLWGQGTLVTVSS VL: QSVLTQPPSASGTPGQRVTISCTGSSSNIGAGYNVYWYQQLPGTAPKLLIYGNINRPSGVPDRFSGSKSGTSASLAISGLRSEDEADYYCAAWDGGLLGLVFGGGTKLTVLG", "unit of measurement": "fold", "endpoint value": 641}
